Ref: the supplement of paper PMC10307832

Test system: LU99A
PROTOCOL_DETAILS: relative viability (nuclei count vs DMSO), 5 days (fraction); higher = more cells survive
RECORDED_CONDITIONS: first compound 0.08 µM
relative viability for assorted compounds

| COMPOUND | relative viability |
| --- | --- |
| COc1nc(C)cnc1NS(=O)(=O)c1cccnc1-c1ccc(-c2nnco2)cc1 [Zibotentan] + CS(=O)(=O)N1CCN(Cc2cc3nc(-c4cccc5[nH]ncc45)nc(N4CCOCC4)c3s2)CC1 [Pictilisib] (partner 1 µM) | 0.362 |
| O=c1cc(-c2cccc3c2Sc2ccccc2S3)oc(N2CCOCC2)c1 + NC(=O)Nc1cc(-c2cccc(F)c2)sc1C(=O)N[C@H]1CCCNC1 [AZD7762] (partner 0.2 µM) | 0.28 |
| COc1nc(C)cnc1NS(=O)(=O)c1cccnc1-c1ccc(-c2nnco2)cc1 [Zibotentan] + C[C@@H](Oc1cc(-c2cnn(C3CCNCC3)c2)cnc1N)c1c(Cl)ccc(F)c1Cl [Crizotinib] (partner 1 µM) | 0.537 |
| COc1nc(C)cnc1NS(=O)(=O)c1cccnc1-c1ccc(-c2nnco2)cc1 [Zibotentan] + Cc1nc(Nc2ncc(C(=O)Nc3c(C)cccc3Cl)s2)cc(N2CCN(CCO)CC2)n1 [Dasatinib] (partner 0.075 µM) | 0.712 |
| COc1nc(C)cnc1NS(=O)(=O)c1cccnc1-c1ccc(-c2nnco2)cc1 [Zibotentan] + Cc1nc(NC(=O)N2CCC[C@H]2C(N)=O)sc1-c1ccnc(C(C)(C)C(F)(F)F)c1 [Alpelisib] (partner 2 µM) | 0.516 |
| COc1nc(C)cnc1NS(=O)(=O)c1cccnc1-c1ccc(-c2nnco2)cc1 [Zibotentan] + COc1cc2c(Oc3ccc(NC(=O)C4(C(=O)Nc5ccc(F)cc5)CC4)cc3F)ccnc2cc1OCCCN1CCOCC1 [Foretinib] (partner 0.25 µM) | 0.953 |

----------
System: NCI-H1395
PROTOCOL_DETAILS: relative viability (nuclei count vs DMSO), 5 days (fraction); higher = more cells survive
RECORDED_CONDITIONS: first compound 0.6325 µM
relative viability for assorted molecules

| MOLECULE | SYSTEM | relative viability |
| --- | --- | --- |
| COCC1(CO)C(=O)C2CCN1CC2 (centres undefined) [PRIMA-1MET] + CS(=O)(=O)N1CCN(Cc2cc3nc(-c4cccc5[nH]ncc45)nc(N4CCOCC4)c3s2)CC1 [Pictilisib] (partner 1 µM) | NCI-H1395 | 0.458 |
| COCC1(CO)C(=O)C2CCN1CC2 (centres undefined) [PRIMA-1MET] + COc1cc2c(Oc3ccc(NC(=O)C4(C(=O)Nc5ccc(F)cc5)CC4)cc3F)ccnc2cc1OCCCN1CCOCC1 [Foretinib] (partner 0.25 µM) | NCI-H1395 | 0.652 |
| COCC1(CO)C(=O)C2CCN1CC2 (centres undefined) [PRIMA-1MET] + C[C@]1(O)C[C@@H](c2nc(-c3ccc4ccc(-c5ccccc5)nc4c3)c3c(N)nccn32)C1 [Linsitinib] (partner 1 µM) | NCI-H1395 | 0.909 |
| COCC1(CO)C(=O)C2CCN1CC2 (centres undefined) [PRIMA-1MET] + Cc1cc(Nc2cc(N3CCN(C)CC3)nc(Sc3ccc(NC(=O)C4CC4)cc3)n2)n[nH]1 [Tozasertib] (partner 0.1 µM) | NCI-H1395 | 0.556 |
